- TEST SYSTEM: human PSMA (prostate specific membrane antigen), full-length, expressed on cells (human, UniProt Q04609 1-750)
- Sequence (Q04609 whole entry): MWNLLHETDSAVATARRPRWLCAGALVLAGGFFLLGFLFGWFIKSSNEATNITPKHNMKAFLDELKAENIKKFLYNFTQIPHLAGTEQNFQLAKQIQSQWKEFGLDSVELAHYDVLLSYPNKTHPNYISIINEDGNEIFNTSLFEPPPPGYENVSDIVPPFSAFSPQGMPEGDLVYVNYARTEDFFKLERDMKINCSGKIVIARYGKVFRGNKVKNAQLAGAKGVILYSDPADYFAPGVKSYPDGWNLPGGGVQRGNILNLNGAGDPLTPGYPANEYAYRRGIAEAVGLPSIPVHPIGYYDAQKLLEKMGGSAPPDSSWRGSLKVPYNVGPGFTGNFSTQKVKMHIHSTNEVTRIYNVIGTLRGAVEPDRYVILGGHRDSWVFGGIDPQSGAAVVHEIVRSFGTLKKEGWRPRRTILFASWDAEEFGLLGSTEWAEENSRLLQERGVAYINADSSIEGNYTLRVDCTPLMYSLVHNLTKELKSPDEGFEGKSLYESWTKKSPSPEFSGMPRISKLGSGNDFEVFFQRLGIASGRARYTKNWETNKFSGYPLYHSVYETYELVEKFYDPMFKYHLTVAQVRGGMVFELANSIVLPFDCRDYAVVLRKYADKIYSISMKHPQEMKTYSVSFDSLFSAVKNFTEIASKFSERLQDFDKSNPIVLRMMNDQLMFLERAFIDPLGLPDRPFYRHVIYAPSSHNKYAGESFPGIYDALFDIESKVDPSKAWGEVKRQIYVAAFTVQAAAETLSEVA
- ASSAY: cell-based or functional assay
READOUT KIND: His-ZAP cell killing, human PSMA Average EC50

- BINDER: "1.18-6GS-2.17 (bispecific antibody, not shown: small tags and cut ends) EVQLLESGGGLVQPGGSLRLSCAASGFSFSSYALSWVRQAPGKGLEWVSSIGENNATTDYAASVKGRFTISRDNSKNTLYLQMNSLRVEDTAVYYCVKDGVHWGQGTLVTVSSGGGGSGGGGSGGGGSGGGGSGGGGSGGGGSEVQLVESGGGVVQPGRSLRLSCAASGFSFSGYGMHWVRQAPGKGLEWVAYISYDASNKYYADNVKGRFTISRDNSKNTLYLQMNSLRAEDTAVYYCAKDPAWGLRLGESSSYDFDIWGQGTMVTVSS"
  REPORTED RESULT: "0.012 nM"
- BINDER: "1.11-6GS-2.22 (bispecific antibody, not shown: small tags and cut ends) EVQLLESGGGLVQPGGSLRLSCAASGFSFSSYALSWVRQAPGKGLEWVSSIGENNDTTDYADNVKGRFTISRDNSKNTLYLQMNSLRVEDTAVYYCVKDGVHWGQGTLVTVSSGGGGSGGGGSGGGGSGGGGSGGGGSGGGGSEVQLVESGGGVVQPGRSLRLSCAASGFSFSGYGTHWVRQAPGKGLEWVAYISYDGSNKYYAAPVKGRFTISRDNSKNTLYLQMNSLRAEDTAVYYCAKDAAWGLRLGESSSYDFDIWGQGTMVTVSS"
  REPORTED RESULT: "0.01 nM"
- BINDER: "1.16-6GS-2.17 (bispecific antibody, not shown: small tags and cut ends) EVQLLESGGGLVQPGGSLRLSCAASGFSFSSYALSWVRQAPGKGLEWVSSIGENNHTTDYADTVKGRFTISRDNSKNTLYLQMNSLRVEDTAVYYCVKDGVHWGQGTLVTVSSGGGGSGGGGSGGGGSGGGGSGGGGSGGGGSEVQLVESGGGVVQPGRSLRLSCAASGFSFSGYGMHWVRQAPGKGLEWVAYISYDASNKYYADNVKGRFTISRDNSKNTLYLQMNSLRAEDTAVYYCAKDPAWGLRLGESSSYDFDIWGQGTMVTVSS"
  REPORTED RESULT: "0.015 nM"
- BINDER: "1.16-6GS-2.22 (bispecific antibody, not shown: small tags and cut ends) EVQLLESGGGLVQPGGSLRLSCAASGFSFSSYALSWVRQAPGKGLEWVSSIGENNHTTDYADTVKGRFTISRDNSKNTLYLQMNSLRVEDTAVYYCVKDGVHWGQGTLVTVSSGGGGSGGGGSGGGGSGGGGSGGGGSGGGGSEVQLVESGGGVVQPGRSLRLSCAASGFSFSGYGTHWVRQAPGKGLEWVAYISYDGSNKYYAAPVKGRFTISRDNSKNTLYLQMNSLRAEDTAVYYCAKDAAWGLRLGESSSYDFDIWGQGTMVTVSS"
  REPORTED RESULT: "0.02 nM"
- BINDER: "1.16-6GS-2.1 (bispecific antibody, not shown: small tags and cut ends) EVQLLESGGGLVQPGGSLRLSCAASGFSFSSYALSWVRQAPGKGLEWVSSIGENNHTTDYADTVKGRFTISRDNSKNTLYLQMNSLRVEDTAVYYCVKDGVHWGQGTLVTVSSGGGGSGGGGSGGGGSGGGGSGGGGSGGGGSEVQLVESGGGVVQPGRSLRLSCAASGFSFSGYGMHWVRQAPGKGLEWVAYISYDGSNKYYADSVKGRFTISRDNSKNTLYLQMNSLRAEDTAVYYCAKDPAWGLRLGESSSYDFDIWGQGTMVTVSS"
  REPORTED RESULT: "0.014 nM"
- BINDER: "1.11-6GS-2.1 (bispecific antibody, not shown: small tags and cut ends) EVQLLESGGGLVQPGGSLRLSCAASGFSFSSYALSWVRQAPGKGLEWVSSIGENNDTTDYADNVKGRFTISRDNSKNTLYLQMNSLRVEDTAVYYCVKDGVHWGQGTLVTVSSGGGGSGGGGSGGGGSGGGGSGGGGSGGGGSEVQLVESGGGVVQPGRSLRLSCAASGFSFSGYGMHWVRQAPGKGLEWVAYISYDGSNKYYADSVKGRFTISRDNSKNTLYLQMNSLRAEDTAVYYCAKDPAWGLRLGESSSYDFDIWGQGTMVTVSS"
  REPORTED RESULT: "0.017 nM"
- BINDER: "1.11-6GS-2.17 (bispecific antibody, not shown: small tags and cut ends) EVQLLESGGGLVQPGGSLRLSCAASGFSFSSYALSWVRQAPGKGLEWVSSIGENNDTTDYADNVKGRFTISRDNSKNTLYLQMNSLRVEDTAVYYCVKDGVHWGQGTLVTVSSGGGGSGGGGSGGGGSGGGGSGGGGSGGGGSEVQLVESGGGVVQPGRSLRLSCAASGFSFSGYGMHWVRQAPGKGLEWVAYISYDASNKYYADNVKGRFTISRDNSKNTLYLQMNSLRAEDTAVYYCAKDPAWGLRLGESSSYDFDIWGQGTMVTVSS"
  REPORTED RESULT: "0.0079 nM"
- BINDER: "1.18-6GS-2.1 (bispecific antibody, not shown: small tags and cut ends) EVQLLESGGGLVQPGGSLRLSCAASGFSFSSYALSWVRQAPGKGLEWVSSIGENNATTDYAASVKGRFTISRDNSKNTLYLQMNSLRVEDTAVYYCVKDGVHWGQGTLVTVSSGGGGSGGGGSGGGGSGGGGSGGGGSGGGGSEVQLVESGGGVVQPGRSLRLSCAASGFSFSGYGMHWVRQAPGKGLEWVAYISYDGSNKYYADSVKGRFTISRDNSKNTLYLQMNSLRAEDTAVYYCAKDPAWGLRLGESSSYDFDIWGQGTMVTVSS"
  REPORTED RESULT: "0.0057 nM"
- BINDER: "1.18-6GS-2.22 (bispecific antibody, not shown: small tags and cut ends) EVQLLESGGGLVQPGGSLRLSCAASGFSFSSYALSWVRQAPGKGLEWVSSIGENNATTDYAASVKGRFTISRDNSKNTLYLQMNSLRVEDTAVYYCVKDGVHWGQGTLVTVSSGGGGSGGGGSGGGGSGGGGSGGGGSGGGGSEVQLVESGGGVVQPGRSLRLSCAASGFSFSGYGTHWVRQAPGKGLEWVAYISYDGSNKYYAAPVKGRFTISRDNSKNTLYLQMNSLRAEDTAVYYCAKDAAWGLRLGESSSYDFDIWGQGTMVTVSS"
  REPORTED RESULT: "0.015 nM"
